# Study System: Proteinase-activated receptor 2 (Homo sapiens, UniProt P55085)
# Sequence (P55085 whole entry): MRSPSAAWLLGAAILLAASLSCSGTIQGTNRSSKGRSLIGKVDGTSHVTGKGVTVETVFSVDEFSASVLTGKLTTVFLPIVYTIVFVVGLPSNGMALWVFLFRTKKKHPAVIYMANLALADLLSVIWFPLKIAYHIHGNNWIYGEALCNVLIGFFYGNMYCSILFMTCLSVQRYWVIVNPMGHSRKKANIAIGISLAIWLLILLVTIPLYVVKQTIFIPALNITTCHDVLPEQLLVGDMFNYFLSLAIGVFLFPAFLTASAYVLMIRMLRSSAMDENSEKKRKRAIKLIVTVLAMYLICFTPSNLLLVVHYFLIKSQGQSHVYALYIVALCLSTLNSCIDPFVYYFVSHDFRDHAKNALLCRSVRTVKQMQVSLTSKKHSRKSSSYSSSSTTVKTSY
# Assay Details: Antagonist activity at PAR2 in human HT-29 cells assessed as inhibition of 2f-LIGRLO-NH2-induced ca2+ release preincubated for 15 mins measured after 1 hr by FLIPR assay
# Type: cell-based
# Condition Notes: read-out: IC50
Quantity Kind: IC50 (nM)

[a] CC[C@H](C)[C@H](NC(=O)[C@H](CC1CCCCC1)NC(=O)c1ccno1)C(=O)NCc1ccccc1OC
[b] CCC(C)Oc1ccccc1CNC(=O)[C@@H](NC(=O)[C@H](CC1CCCCC1)NC(=O)c1ccno1)[C@@H](C)CC (some centres not stated)
Request: Please indicate which has the smaller reported IC50: a , or b . Give the chosen item's label as your response.
Response: a
